test system: L929; assay: Antiproliferative activity against mouse L929 cells by MTT assay; type: functional, cell-based
measurement kind: IC50 (µM)
Provide only the numeric value, understood in µM.

C=CC[C@@H]1[C@H]2CC(=O)[C@H](C)[C@H]2C[C@H]1O[Si](c1ccccc1)(c1ccccc1)C(C)(C)C    32.4
C=CC[C@@H]1[C@@H]2[C@@H](CC(=O)[C@H]2C)C[C@H]1O[Si](c1ccccc1)(c1ccccc1)C(C)(C)C    16.2
C#CC(=O)O[C@H]1C[C@@H]2C[C@H](O[Si](c3ccccc3)(c3ccccc3)C(C)(C)C)C[C@@H]2C1    9.3
C[C@@H]1[C@H](O[Si](c2ccccc2)(c2ccccc2)C(C)(C)C)C[C@]2(C)CC(=O)C[C@]12C    35.7
O=C1C=C[C@H]2C(=O)C=C[C@@H]12    3
C=CC[C@H]1C(=O)C[C@@H]2[C@@H](C)[C@H](O[Si](c3ccccc3)(c3ccccc3)C(C)(C)C)C[C@@H]21    17.8
C=CC[C@@H]1C(=O)C[C@H]2C[C@@H](O[Si](c3ccccc3)(c3ccccc3)C(C)(C)C)[C@H](C)[C@H]21    5.1

`CC(C)(C)[Si](O[C@@H]1[C@H]2CCC3(OCCO3)[C@H]2C[C@H]1O)(c1ccccc1)c1ccccc1` on L929 gives IC50 = 41

====

Items are presented alongside their recorded IC50.
tested on: L929; assay: Antiproliferative activity against mouse L929 cells by MTT assay; type: functional, cell-based

Recorded results for 2 compounds are shown here.
C=CC[C@@H]1[C@H]2[C@H](C)C=C[C@H]2C[C@H]1O[Si](c1ccccc1)(c1ccccc1)C(C)(C)C    7.2 µM
O=C1CC[C@H]2[C@@H]1CCC21OCCO1    > 40 µg/mL

The record that follows has no IC50 shown yet.
// field: IC50; key: `C[C@@H]1[C@H](O)C[C@]2(C)CC3(C[C@]12C)OCC(C)(C)CO3` ; value = > 150 µM

====

tested on: L929; test: Antiproliferative activity against mouse L929 cells by MTT assay; assay type: functional, cell-based
measurement kind: IC50

Please review the following examples before continuing.
C=CC[C@@H]1[C@@H]2[C@@H](CC(=O)[C@H]2CC=C)C[C@H]1O    > 40 µg/mL
CC1(C)COC2(C[C@@H]3CC=C[C@@H]3C2)OC1    > 40 µg/mL
Cc1cc(C)c(O[C@@H]2C[C@@H]3CC4(C[C@@H]3C2)OCC(C)(C)CO4)c(C)c1    > 40 µg/mL
C=CCC[C@H]1CC2(OCCO2)[C@@H]2C=CC(=O)[C@H]12 (racemic)    25.6 µM
CC(C)=CC[C@@H]1C(=O)C[C@H]2C[C@@H](O[Si](c3ccccc3)(c3ccccc3)C(C)(C)C)[C@H](C)[C@H]21    5.6 µM
CC(C)(C)[Si](OC1CCCC1)(c1ccccc1)c1ccccc1    61.6 µM
C[C@@H]1[C@H]2CC(=O)[C@H](C)[C@H]2C[C@H]1O[Si](c1ccccc1)(c1ccccc1)C(C)(C)C    7.4 µM

Now consider the entry below.
IC50 on L929 for `C=C1C[C@@H]2CC3(C[C@@H]2C1)OCC(C)(C)CO3` is > 40 µg/mL

====

tested on: L929; assay: Antiproliferative activity against mouse L929 cells by MTT assay; assay type: functional, cell-based
measurement kind: IC50

CC(C)(C)[Si](C)(C)OC1CCCC1    > 200 µM
O=CCCCC1CC(=O)[C@H]2[C@@H]1CCC21OCCO1 (stereo partly drawn)    > 40 µg/mL
O=C1C=C(CCCCOCc2ccccc2)[C@H]2CCC3(OCCO3)[C@@H]12    > 40 µg/mL
CC(C)(C)[Si](O[C@H]1C[C@H]2CC(=O)C[C@H]2C1)(c1ccccc1)c1ccccc1    > 40 µg/mL
C=CC[C@@H]1[C@@H]2[C@@H](C/C(=N/NS(=O)(=O)c3ccc(C)cc3)[C@H]2C)C[C@H]1O[Si](c1ccccc1)(c1ccccc1)C(C)(C)C    > 67 µM
C1COC2(CC[C@@H]3[C@H]4O[C@H]4C[C@@H]32)O1    > 40 µg/mL
O=C1C2C(O)CCCC2[C@H]2[C@@H]1CC(Br)C21OCCO1 (stereo partly drawn)    22 µg/mL

Noted for `C=CC[C@@H]1[C@@H]2[C@H](C[C@H]1O[Si](c1ccccc1)(c1ccccc1)C(C)(C)C)[C@@H](C)C(=O)[C@H]2C` : its IC50 reads 5.8 µg/mL
